Recorded Kd values for a group of binders are listed next.
# system: T1, NEQ395 DNA primase (monomeric PriS-PriL) (Nanoarchaeum equitans, UniProt Q74N22 1-393)
# T1 sequence: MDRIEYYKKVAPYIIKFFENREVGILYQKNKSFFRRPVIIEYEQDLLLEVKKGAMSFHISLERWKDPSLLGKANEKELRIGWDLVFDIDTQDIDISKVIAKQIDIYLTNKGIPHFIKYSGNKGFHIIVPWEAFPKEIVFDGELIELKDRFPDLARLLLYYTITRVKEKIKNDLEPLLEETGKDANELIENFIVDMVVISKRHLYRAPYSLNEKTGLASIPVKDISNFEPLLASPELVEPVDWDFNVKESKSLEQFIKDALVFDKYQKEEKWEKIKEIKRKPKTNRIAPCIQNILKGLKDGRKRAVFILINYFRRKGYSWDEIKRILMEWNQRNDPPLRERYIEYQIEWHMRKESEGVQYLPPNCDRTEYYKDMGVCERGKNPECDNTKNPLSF
# procedure summary: fluorescence anisotropy

>  <binder>
TGTAAAACGACGGCCAGT (ssDNA) [t18]

>  <Kd>
510 nM

$$$$
>  <binder>
t18_ds (dsDNA) DNA 1: TGTAAAACGACGGCCAGT DNA 2: ACTGGCCGTCGTTTTACA

>  <Kd>
650 nM

$$$$

Where these numbers come from: paper PMC10250227
